target: human serotonin transporters (Homo sapiens)
Sequence (P31645 whole entry): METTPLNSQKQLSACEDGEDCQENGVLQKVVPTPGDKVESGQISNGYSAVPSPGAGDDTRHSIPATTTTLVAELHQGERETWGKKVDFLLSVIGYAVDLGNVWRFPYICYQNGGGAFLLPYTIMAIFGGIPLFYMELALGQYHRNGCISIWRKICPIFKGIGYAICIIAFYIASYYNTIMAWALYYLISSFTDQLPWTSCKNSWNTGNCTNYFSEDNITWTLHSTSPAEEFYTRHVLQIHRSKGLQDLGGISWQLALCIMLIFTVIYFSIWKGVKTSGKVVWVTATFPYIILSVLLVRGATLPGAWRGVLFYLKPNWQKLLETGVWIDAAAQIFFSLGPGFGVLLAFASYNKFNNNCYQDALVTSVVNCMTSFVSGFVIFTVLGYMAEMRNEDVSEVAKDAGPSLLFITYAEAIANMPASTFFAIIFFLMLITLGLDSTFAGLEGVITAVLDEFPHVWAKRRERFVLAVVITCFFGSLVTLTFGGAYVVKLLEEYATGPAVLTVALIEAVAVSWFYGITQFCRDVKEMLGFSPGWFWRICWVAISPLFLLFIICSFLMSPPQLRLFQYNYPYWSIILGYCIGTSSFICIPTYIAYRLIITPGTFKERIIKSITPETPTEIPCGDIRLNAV
propertyLabel: IC50

INPUT: Sample CCN(CC)C1CCCC(COCc2cc(C(F)(F)F)cc(C(F)(F)F)c2)(c2ccccc2)C1 (stereo not shown) [Example 13] — what was its IC50?
OUTPUT: 100 to 300 nM
